SYSTEM: MS2 coat protein, dlFG mutant (Escherichia phage MS2, UniProt P03612, del68-81insG)
MEASUREMENT DESCRIPTION: 4 mM Mg2+; no ligand; RNA-MaP array; 100 mM Tris-HCl pH 7.5, 80 mM KCl, 4 mM MgCl2, 0.1 mg/mL BSA, 1 mM DTT, 0.01 mg/mL yeast tRNA, 0.01% Tween-20; protein 1.5 nM to 3 uM; 37 C (Table S3)
REPORTED CONDITIONS: chain copies: 2; label: tethered by stalled RNA polymerase
Provide the recorded Kd for the entries that follow.

Input Eterna 1268 (Exclusion - Tryptophan B) (ssRNA) RNA: AAGCCAUACUCGGCCGCCACUUACUUCGUUGCAGUGAUGUUGCACACGAAUCCGUCAUAGCAAAUAAGGACCGGGAGAUAUACCG , output reported Kd.
> 3000 nM

Input Eterna 7712196 (Same State - FMN B) (ssRNA) RNA: AGAGUUAUGCGAGGAUAUGCAGUUAGUACUCAAAGAGUACUAACGCAGAGUGAUGUUCUGUGAAACGCAGAAGGUGCAUAACUCA , output reported Kd.
> 3000 nM

Input Eterna 7684757 (Exclusion - Tryptophan B) (ssRNA) RNA: AAUAAAAUCACGGCCGCCACUGAUUACCAUAUUAGGAGUGAUGUUCCUAUGACUAUAUAAUUUAACAGGACCGGGUGAAUAUUUA , output reported Kd.
> 3000 nM

Input Eterna 1541 (Same State - FMN A) (ssRNA) RNA: AAGUGGGAACGGCCCAAUAAAGUGUUUGUCAAGGAUAUUAUUCACAUAAGAAGGUGACAGACCACCUCCGGAGUGAUGUUUUGGA , output reported Kd.
> 3000 nM

Input Eterna 7709711 (Same State - Tryptophan B) (ssRNA) RNA: UAUAUAGUGACGGCCGCCACUAUUGUGAUGUAGUUGUUAGAGUGAUGUUUUGUUGUUUGAUUUUGUAGGACCGGGUUAUAUGUUA , output reported Kd.
> 3000 nM

Input Eterna 7682834 (Same State - Tryptophan A) (ssRNA) RNA: UGUCAUGGAAACAUGAACGUUGAUGUUCGACGAGGACCGGUACGGCCGCCACUCGAGUAAUAGUCAGUGAUGUUGACUUGUUUAA , output reported Kd.
> 3000 nM

Input Eterna 7754813 (Same State - Tryptophan B) (ssRNA) RNA: UAGUAGCUCUCGGCCGCCACUCCUCAGUGAUGUUGAGAUAUUAAGAGCCAAUUGGCUCAUAUAAAGAGGACCGGGAGAGCUACAU , output reported Kd.
> 3000 nM

Input Eterna 7723566 (Exclusion - Tryptophan A) (ssRNA) RNA: AUGUCGUUAUAGUGAGUGAUGUUCACUGUGCGAGGACCGGUACGGCCGCCACUCGAGAGUGGUGGACACUGAGUCACUCUGACAC , output reported Kd.
> 3000 nM

Input Eterna 12456 (Exclusion 4) (ssRNA) RNA: GUAAAGUGAGGAUAUGGUAAAUUAAUUAUUAAUUAAUUAAUCCAGAAGGCACAUGAGGAUCACCCAUGUAAUUG , output reported Kd.
24.8 nM

Input Eterna 6108976 (Same State NG 2) (ssRNA) RNA: GUAGCAUACCGAGGAUAUUCAUAUAAUAAAUAAACAUGAGGACCACCCAUGUGGCGAAAGCCUUGGGAGAAGGCGGAAUGCUAC , output reported Kd.
1050 nM

Input Eterna 7687729 (Same State - FMN B) (ssRNA) RNA: AUUUUUAACUGAGGAUAUCGAAUUUAUGUAGUGAUGUUACUUUAAAUUAAAAUUUUAAUUUCUUAACGAGAAGGCAGAAUAAUUA , output reported Kd.
> 3000 nM

Input Eterna 7682758 (Exclusion - Arginine A) (ssRNA) RNA: AAUUUACAUUAAUUAUUUAAAGGUUCAGAAGGAGCGUGAAUUAACACAGGUAGGUCGCUGAGCGAGUGAUGUUCGCUAUAUACUA , output reported Kd.
> 3000 nM

Input UUUUCAGAACUUAUUU (ssRNA) [Eterna 3 (ShortRNAControl)] , output reported Kd.
> 3000 nM

Input Eterna 6148811 (Same State NG 2) (ssRNA) RNA: UGAAUCAAUACAGGAUAUGGUGACGCACAUGAGGAUCACCCAUGUCCGCAGCGUGCUCAGCACGCCCAGAAGGGUAUUGAUCCG , output reported Kd.
816 nM

Input Eterna 7734632 (Exclusion - FMN B) (ssRNA) RNA: CAUACGCAUGGAGGAUAUGAGAUUUUUCAUAUUAUUUUUUAUUCUCAGUGAUGUUGGGAUUUAUAAUCAGAAGGCCAUGUGUAUG , output reported Kd.
> 3000 nM

Input Eterna 6453430 (Inverted Small Loop Exclusion NG 3) (ssRNA) RNA: AGGUAAGACUUAAUUGUGCUGGUGAGAAGGCAAAUGGUUGUGAUUAACAUGAGGAUCACCCAUGUUGAGGAUAUCAUCGGUAUC , output reported Kd.
500 nM

Input Eterna 6398784 (Exclusion NG 1) (ssRNA) RNA: CCUGCACCUCAAGGAUAUCCAGUCGAAACGACUGGAGAAGGUGAGGAUCACCCACCUAGCCUGACGAAAGUCAGGCAUGCAGGA , output reported Kd.
14.4 nM

Input Eterna 7685224 (Exclusion - Theophylline B) (ssRNA) RNA: AAUUUAUUAACUGAUACCAGACUUAAUUAAUUGUAAAUUACUAGUGAUGUUAGUGAUUCUGUCCCUUGGCAGCAGUAUUUAUUAA , output reported Kd.
> 3000 nM

Input Eterna 7672999 (Same State - Tryptophan B) (ssRNA) RNA: UGGUACAUGGCGGCCGCCACUUCACGUAAAAUAAAAACUUGAGGAUCACCCAAGUAAUAAGUUGGGAGGACCGGGUCAUGUACCU , output reported Kd.
19 nM
